This collection of values is drawn from patent US11702475B2.

ASSAY SUMMARY: Differential scanning calorimetry in PBS of FN3 domains
Type: physicochemical
PROTOCOL CONDITIONS: DSC in PBS; c-Met-binding FN3 domains
This listing pairs molecules with measured Thermal Stability (Tm).
State just the number; it will be interpreted in C..

Input: Provide Thermal Stability (Tm) value for the following molecule: P114AR5P74-A5: c-Met-binding FN3 domain, SEQ ID NO: 32 (protein, c-Met binding FN3 domain) LPAPKNLVVSRVTEDSARLSWTAPDAAFDSFWIRYDEVVVGGEAIVLTVPGSERSYDLTGLKPGTEYYVNILGVKGGSISVPLSAIFTT
Output: 74.1

Input: Provide one value: measured Thermal Stability (Tm) of P114AR7P93-H9: c-Met-binding FN3 domain, SEQ ID NO: 40 (protein, c-Met binding FN3 domain) LPAPKNLVVSRVTEDSARLSWTAPDAAFDSFWIRYFEFLGSGEAIVLTVPGSERSYDLTGLKPGTEYVVQIIGVKGGHISLPLSAIFTT
Output: 88.2

Input: Name the recorded Thermal Stability (Tm) of the molecule listed here: P114AR7P95-G7: c-Met-binding FN3 domain, SEQ ID NO: 48 (protein, c-Met binding FN3 domain) LPAPKNLVVSRVTEDSARLSWTAPDAAFDSFWIRYFELLSTGEAIVLTVPGSERSYDLTGLKPGTEYVVNIMGVKGGSISPPLSAIFTT
Output: 87.2

Input: Hello, please tell me recorded Thermal Stability (Tm) for this one: P114AR7P92-G8: c-Met-binding FN3 domain, SEQ ID NO: 36 (protein, c-Met binding FN3 domain) LPAPKNLVVSRVTEDSARLSWTAPDAAFDSFVIRYFEFLGSGEAIVLTVPGSERSYDLTGLKPGTEYVVQILGVKGGYISIPLSAIFTT
Output: 90.9

Input: Provide Thermal Stability (Tm) value for the following molecule: P114AR7P93-G8: c-Met-binding FN3 domain, SEQ ID NO: 39 (protein, c-Met binding FN3 domain) LPAPKNLVVSRVTEDSARLSWTAPDAAFDSFWIRYFEFLGSGEAIVLTVPGSERSYDLTDLKPGTEYGVTINGVKGGRVSTPLSAIFTT
Output: 76.8

Input: Indicate its recorded Thermal Stability (Tm); the molecule in question is P114AR7P95-F10: c-Met-binding FN3 domain, SEQ ID NO: 47 (protein, c-Met binding FN3 domain) LPAPKNLVVSRVTEDSARLSWTAPDAAFDSFWIRYFEFTTAGEAIVLTVPGSERSYDLTGLKPGTEYVVNIMGVKGGSISPPLSAIFTT
Output: 85.2
